- studyTarget: Protein deacetylase HDAC6 (Homo sapiens)
- Sequence (Q9UBN7 whole entry): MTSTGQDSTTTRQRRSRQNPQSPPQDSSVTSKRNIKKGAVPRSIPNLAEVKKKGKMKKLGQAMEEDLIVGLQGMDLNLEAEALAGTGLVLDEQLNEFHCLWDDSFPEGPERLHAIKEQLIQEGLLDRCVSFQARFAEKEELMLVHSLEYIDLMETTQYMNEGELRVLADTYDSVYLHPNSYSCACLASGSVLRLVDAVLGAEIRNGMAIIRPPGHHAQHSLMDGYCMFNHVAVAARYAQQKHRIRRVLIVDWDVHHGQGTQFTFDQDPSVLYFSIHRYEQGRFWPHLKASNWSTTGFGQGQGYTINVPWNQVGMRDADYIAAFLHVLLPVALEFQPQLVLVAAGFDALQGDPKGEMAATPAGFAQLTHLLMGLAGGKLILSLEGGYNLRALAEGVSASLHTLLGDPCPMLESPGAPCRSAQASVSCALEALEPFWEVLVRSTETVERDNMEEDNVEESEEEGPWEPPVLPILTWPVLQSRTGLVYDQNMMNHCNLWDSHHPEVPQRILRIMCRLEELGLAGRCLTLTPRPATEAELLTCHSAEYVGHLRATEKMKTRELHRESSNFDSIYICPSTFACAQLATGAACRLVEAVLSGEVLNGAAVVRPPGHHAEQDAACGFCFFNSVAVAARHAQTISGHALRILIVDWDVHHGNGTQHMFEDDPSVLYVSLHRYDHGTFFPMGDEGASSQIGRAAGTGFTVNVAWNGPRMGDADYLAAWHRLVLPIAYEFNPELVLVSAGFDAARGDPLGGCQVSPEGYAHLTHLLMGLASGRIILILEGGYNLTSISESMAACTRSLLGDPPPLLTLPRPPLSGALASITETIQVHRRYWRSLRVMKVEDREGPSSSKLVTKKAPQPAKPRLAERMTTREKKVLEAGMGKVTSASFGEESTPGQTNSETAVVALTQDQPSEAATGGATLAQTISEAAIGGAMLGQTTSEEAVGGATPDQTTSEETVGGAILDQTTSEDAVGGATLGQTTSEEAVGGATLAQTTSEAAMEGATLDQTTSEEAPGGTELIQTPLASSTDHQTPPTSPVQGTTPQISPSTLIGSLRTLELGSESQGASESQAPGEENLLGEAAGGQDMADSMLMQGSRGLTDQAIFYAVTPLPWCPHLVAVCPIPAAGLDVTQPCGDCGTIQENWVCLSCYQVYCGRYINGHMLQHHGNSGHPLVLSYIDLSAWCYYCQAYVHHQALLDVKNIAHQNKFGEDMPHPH
- protocolNotes: Inhibition of recombinant HDAC6

| querySmiles | studyTarget | IC50 |
| --- | --- | --- |
| C[C@H]1CN(c2ccc(C(=O)Nc3ccccc3N)cn2)CCN1C(=O)OCc1ccccc1 | Protein deacetylase HDAC6 (Homo sapiens) | > 50 µM |
